Overview of reported protein stability index across a group of variants:
B1: MIA2 (parent)
chain: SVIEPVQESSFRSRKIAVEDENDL

# Variants of: B1
# Protocol Summary: protein stability index of a GFP-peptide fusion (GPS, HEK-293T) (PSI 1-6); higher = more stable;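 also: lentivirally expressed fusions sorted by FACS into six bins by GFP to DsRed ratio, PSI derived from sequencing read proportions per bin multiplied by bin number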
# Condition Summary: c terminus: a fixed tail appended
I'd appreciate a reply containing only the number, no unit.

Variant Code: D20C
Property Name: protein stability index
Numeric Result: 4.89

Variant Code: E4G
Property Name: protein stability index
Numeric Result: 5.01

Variant Code: S9G
Property Name: protein stability index
Numeric Result: 5.08

Now examine the next entry.
I'd like to know its protein stability index. The variant in question is `K15I`
5.05
